Test system: Male ICR mice
Assay: Antagonism of test compounds against general anesthesia induced by general anesthetics (total anesthesia time, loss to recovery of righting reflex)
Type: in vivo
Conditions: Remimazolam 57.34 mg/kg (1.5×ED50) i.v. tail vein induction, test compound 50 mg/kg in fat emulsion injected after 30 s loss of righting reflex
For each record, write down the corresponding The average of total anesthesia time.
Numbers only, in min.

The cases that follow already have their The average of total anesthesia time on record.
- compound: "CC1(C)C2CCC1(CBr)C(=O)C2 (stereo not drawn)"
  target.entity: "Male ICR mice"
  The average of total anesthesia time / min: 1.01
- compound: "CC12CCC(CC(=O)O)(CC1=O)C2(C)C (stereo not drawn)"
  target.entity: "Male ICR mice"
  The average of total anesthesia time / min: 0.85
- compound: "CC12CCC(CC1=O)C2(C)C (stereo not drawn)"
  target.entity: "Male ICR mice"
  The average of total anesthesia time / min: 0.45
- compound: "CC12CCC(C(Br)C1=O)C2(C)C (stereo not drawn)"
  target.entity: "Male ICR mice"
  The average of total anesthesia time / min: 1.49
- compound: "CCC1(C)C2CCC1(C)C(=O)C2 (stereo not drawn)"
  target.entity: "Male ICR mice"
  The average of total anesthesia time / min: 0.77

Report measured The average of total anesthesia time; entry is CC12CC(Cl)C(CC1=O)C2(C)C (stereo not drawn)
1.32
